study target: AChE from human erythrocytes (Homo sapiens)
Construct: AChE from human erythrocytes; from tissue; host or cells: human erythrocytes
test: Acetylcholinesterase inhibition assay (Ellman method)
Assay type: biochemical
pIC50: −log10 of the molar value.
parameter measured: pIC50

1. Nc1nnc(-c2cn(C3CC3)c3cc(N4CCNCC4)c(F)cc3c2=O)s1; 6.90

----------
study target: AChE from human erythrocytes (Homo sapiens, UniProt P22303)
Construct: AChE from human erythrocytes; from tissue; host or cells: human erythrocytes
Sequence (P22303 other isoform, or with tags, fused parts or gaps): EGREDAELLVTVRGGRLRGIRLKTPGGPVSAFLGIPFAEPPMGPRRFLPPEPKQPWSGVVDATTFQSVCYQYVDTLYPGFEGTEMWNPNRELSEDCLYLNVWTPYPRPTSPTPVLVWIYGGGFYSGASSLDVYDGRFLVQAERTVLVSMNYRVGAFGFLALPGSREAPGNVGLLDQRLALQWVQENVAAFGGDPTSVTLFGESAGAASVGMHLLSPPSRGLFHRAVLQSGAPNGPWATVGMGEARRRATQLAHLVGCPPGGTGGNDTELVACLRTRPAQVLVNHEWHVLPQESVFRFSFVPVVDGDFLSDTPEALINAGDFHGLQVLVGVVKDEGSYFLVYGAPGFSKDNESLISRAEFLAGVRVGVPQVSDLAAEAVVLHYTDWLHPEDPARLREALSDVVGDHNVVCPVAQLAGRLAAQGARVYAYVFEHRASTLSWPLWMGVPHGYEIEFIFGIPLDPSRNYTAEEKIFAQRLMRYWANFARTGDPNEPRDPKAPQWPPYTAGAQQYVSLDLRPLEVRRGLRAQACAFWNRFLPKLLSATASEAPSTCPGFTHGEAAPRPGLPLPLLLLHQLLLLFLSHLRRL
test: Acetylcholinesterase inhibition assay (Ellman method)
Format: biochemical
condition parameters: mean ± SEM, triplicate; substrate acetylthiocholine iodide; read-out: Acetylcholine Esterase (from Human Erythrocytes) IC50 ± SEM
Hi! Just check whether IC50 is below 4000 nM. Below gives Y, equal or above gives N.

1. C[C@@H]1COc2c(N3CCN(C)CC3)c(F)cc3c(=O)c(-c4nnc(N)s4)cn1c23; Y
2. Nc1nnc(-c2cn(C3CC3)c3cc(N4CCN(C(=O)c5ccc(Cl)cc5Cl)CC4)c(F)cc3c2=O)s1; N
3. Nc1nnc(COCCN2CCN(C(c3ccccc3)c3ccc(Cl)cc3)CC2)s1 (centres unmarked); N
4. CC(C)Cc1ccc(C(C)c2nnc(N)s2)cc1 (centres unmarked); Y
5. C[C@@H]1COc2c(N3CCNCC3)c(F)cc3c(=O)c(-c4nnc(N)s4)cn1c23; Y
6. COc1ccc2cc([C@H](C)c3nnc(N)s3)ccc2c1; Y
7. Nc1nnc(-c2cn(C3CC3)c3cc(N4CCN(C(=O)c5cccc([N+](=O)[O-])c5)CC4)c(F)cc3c2=O)s1; Y
8. COc1ccc(C(=O)N2CCN(c3cc4c(cc3F)c(=O)c(-c3nnc(N)s3)cn4C3CC3)CC2)cc1; Y

----------
study target: UniProtKB P22303
parameter measured: Ki (nM)

1. C[C@@H]1COc2c(N3CCNCC3)c(F)cc3c(=O)c(-c4nnc(N)s4)cn1c23; 3.1
